// provenance: patent US20120171209A1

target: cynomolgus IL-6R used in Biacore (cynomolgus monkey); assay: Biacore, periplasmic extract
endpoint: koff (s⁻¹)

IL6RPMP107A1 (VHH, also called IL6R107A1) VHH: EVQLVESGGGLVQAGGSLNLSCNASGDIGSINAMGWYRQAPGQQREWVAVITDTDSTIYPDSVKGRFAISRDGAKNTVHLRMSSLKPEDTAVYYCNAYQAGWGDYWGQGTQVTVSS; 0.01
IL6RPMP108E1 (VHH, family 20; also called PMP108E01) VHH: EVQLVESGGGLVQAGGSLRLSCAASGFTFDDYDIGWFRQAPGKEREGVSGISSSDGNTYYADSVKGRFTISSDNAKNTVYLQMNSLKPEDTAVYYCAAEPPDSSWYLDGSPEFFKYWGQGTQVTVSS; 0.001
IL6RPMP103C4 (VHH, family 19; also called IL6R103C4) VHH: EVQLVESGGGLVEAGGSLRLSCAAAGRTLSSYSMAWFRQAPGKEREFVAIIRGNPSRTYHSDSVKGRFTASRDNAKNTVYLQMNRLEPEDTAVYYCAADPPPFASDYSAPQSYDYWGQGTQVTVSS; 0.001
IL6RPMP101B6 (VHH, family 7; periplasmic extract) VHH: EVQLVESGGGLVQAGGSLRLSCAASGSDFSIKAMGWYRQAPGKQRELVARITSGGSTVYADSVKGRFTISRDNAKNTVYLQMNSLKPEDATVYYCNAIVTYSDYDLGNDYWGQGTQVTVSS; 0.001

[1] IL6RPMP108F7 (VHH) VHH: EVQLVESGGGLVQAGGSLRLSCTASGRTFSDYDMGWFRQAPGKERECVAVIDTNGDNTLTVGSVKGRFAISRDNAKNTVYLQMNSLLPEDTAVYTCAAGAWSSLRSTAANYWGQGTQVTVSS
[2] IL6RPMP103B2 (VHH) VHH: EVQLVESGGGLVQPGGSLRLSCAASGSTFSINMMAWYCQAPGKQRELVASISSGGGINYADSVKGRFTISRDYAENSVDLQMNSLKPEDTAVYYCNARGTYLNGDHYSTNYNSWGQGTQVTVSS
[3] IL6RPMP105H10 (VHH, family 3; periplasmic extract) VHH: EVQMVESGGGLVQAGGSLRLSCAASGFAFDDYAIGWFRQAPGKEREGVSSISSSNGNTYYADSVRGRFTISSDNAKNTVYLQMNSLKPEDAGVYYCAAIWGIFFNEKMPVGAYDYWGQGTQVTVSS
Please rank these binders by koff in descending order. Write the labels out in the order the request specifies.
3, 1, 2
